Tested on: Fibroblast
Assay: Multiplex assay against human fibroblast
Type: toxicity, cell-based
Settings: 48 h, 1 µM, compound concentration 1 uM, replicate 1
Assign Population Normal (%) to each entry below.
Respond numerically; units are % and should not be typed.

Name the recorded Population Normal (%) of the molecule listed here: CN1CCC(C(=O)c2cccc(NC(=O)c3c(F)cc(F)cc3F)n2)CC1 96

Name the recorded Population Normal (%) of the molecule listed here: O=C(O)CCC/C=C\CC1C(O)CC(O)C1/C=C/C(O)COc1cccc(Cl)c1 (centres undefined) [CLOPROSTENOL] 97

Name the recorded Population Normal (%) of the molecule listed here: Cc1cc(=O)n(C)c2cc(N3C(=O)CC[C@H](NS(=O)(=O)CC(C)C)[C@H]3c3ccc(Cl)cc3)ccc12 97

Name the recorded Population Normal (%) of the molecule listed here: Cc1cc(-c2ccc3c(c2)CC[C@H]3N2CC3(CCN(C(=O)Cc4cn5cc(C)sc5n4)CC3)C2)ncn1 [PF-5190457] 93

Name the recorded Population Normal (%) of the molecule listed here: O=C(Nc1cc(-c2ccccc2)nn1-c1ccccc1F)c1ccc([N+](=O)[O-])cc1 92

Name the recorded Population Normal (%) of the molecule listed here: Nc1nc(CC(=O)Nc2ccc(CCNC[C@H](O)c3ccccc3)cc2)cs1 [MIRABEGRON] 92

Name the recorded Population Normal (%) of the molecule listed here: CN1CCN2c3ccccc3Cc3ccccc3C2C1.Cl (centres undefined) [MIANSERIN HYDROCHLORIDE] 97

Name the recorded Population Normal (%) of the molecule listed here: COCCCN1CCC(NC(=O)c2cc(Cl)c(N)c3c2OCC3)CC1 [PRUCALOPRIDE] 95

Name the recorded Population Normal (%) of the molecule listed here: COc1c(Nc2ccc(S(C)(=O)=O)nc2C)ncnc1OC1CCN(C(=O)OC(C)C)CC1 [ADP-597] 97

Name the recorded Population Normal (%) of the molecule listed here: CCc1nn2c(C)cc(C)nc2c1Cc1ccc(-c2nnc(C3CCNCC3)o2)cc1 95

Name the recorded Population Normal (%) of the molecule listed here: CC(C)C[C@H](CO)Nc1nc(S[C@@H](C)c2ccccc2)nc2nc(N)sc12 [AZD-8797] 98

Name the recorded Population Normal (%) of the molecule listed here: O=c1nc2[nH]c3ccccc3nc-2c(=O)[nH]1 [ALLOXAZINE] 90

Name the recorded Population Normal (%) of the molecule listed here: CCn1c(-c2nc3cc(C(=O)N4CCCC(N)C4)ccc3n2C)cc2ccccc21.Cl (centres undefined) 97

Name the recorded Population Normal (%) of the molecule listed here: COc1cc(OC2CCN(C(C)=O)CC2)ccc1C(=O)N1CCC(N2C(=O)OCc3ccccc32)CC1 92

###

System: Fibroblast
Assay: Multiplex assay against human fibroblast
Format: toxicity, cell-based
Conditions: 48 h, 1 µM, compound concentration 1 uM, replicate 1
Non-standard residues stand in square brackets, D forms with d. Residues, ends and D or L forms follow the SMILES beside them.
Measured property: Population Hoechst High Intensity Objects (%)
Respond numerically; units are % and should not be typed.

Name the recorded Population Hoechst High Intensity Objects (%) of the molecule listed here: C[C@H](NC(=O)CNC(=O)c1cccc(Cl)c1)c1ccccc1 1

Name the recorded Population Hoechst High Intensity Objects (%) of the molecule listed here: Cc1cc(=O)n(C)c2cc(N3C(=O)CC[C@H](NS(=O)(=O)CC(C)C)[C@H]3c3ccc(Cl)cc3)ccc12 2

Name the recorded Population Hoechst High Intensity Objects (%) of the molecule listed here: O=C(Nc1cc(-c2ccccc2)nn1-c1ccccc1F)c1ccc([N+](=O)[O-])cc1 7

Name the recorded Population Hoechst High Intensity Objects (%) of the molecule listed here: OCCCNc1cc(-c2ccnc(Nc3cccc(Cl)c3)n2)ccn1 8

Name the recorded Population Hoechst High Intensity Objects (%) of the molecule listed here: COc1cc2nc(N3CCN(C(=O)COc4c(OC)cccc4C(C)C)CC3)nc(N)c2cc1OC.Cl.Cl 4

Name the recorded Population Hoechst High Intensity Objects (%) of the molecule listed here: CSc1nc(NC2CCCC2)c([N+](=O)[O-])c(NC2CCCC2)n1 [GS-39783] 4

Name the recorded Population Hoechst High Intensity Objects (%) of the molecule listed here: Cc1cc(-c2ccc3c(c2)CC[C@H]3N2CC3(CCN(C(=O)Cc4cn5cc(C)sc5n4)CC3)C2)ncn1 [PF-5190457] 6

Name the recorded Population Hoechst High Intensity Objects (%) of the molecule listed here: COC(c1ccccc1)(c1ccccc1)[C@H](Oc1nc(C)cc(C)n1)C(=O)O [AMBRISENTAN] 4

Name the recorded Population Hoechst High Intensity Objects (%) of the molecule listed here: CN1C[C@H](C(=O)N[C@]2(C)O[C@@]3(O)[C@@H]4CCCN4C(=O)[C@H](Cc4ccccc4)N3C2=O)C[C@@H]2c3cccc4[nH]cc(c34)C[C@H]21.CS(=O)(=O)O [DIHYDROERGOTAMINE MESYLATE] 1

Name the recorded Population Hoechst High Intensity Objects (%) of the molecule listed here: CN1CCC(C(=O)c2cccc(NC(=O)c3c(F)cc(F)cc3F)n2)CC1 3

Name the recorded Population Hoechst High Intensity Objects (%) of the molecule listed here: CCCCC[C@H](O)/C=C/[C@H]1[C@H](O)CC(=O)[C@@H]1CCCCCCC(=O)O [ALPROSTADIL] 1

Name the recorded Population Hoechst High Intensity Objects (%) of the molecule listed here: CC(C)C[C@@H]1NC(=O)[C@@H](C(C)C)NC(=O)[C@@H]2CCCN2C(=O)[C@@H](CC(=O)O)NC(=O)[C@@H](Cc2c[nH]c3ccccc23)NC1=O [BQ-123] (cyclo(L[dW][dD]P[dV])) 3

Name the recorded Population Hoechst High Intensity Objects (%) of the molecule listed here: CC(C)C[C@H](CO)Nc1nc(S[C@@H](C)c2ccccc2)nc2nc(N)sc12 [AZD-8797] 1

Name the recorded Population Hoechst High Intensity Objects (%) of the molecule listed here: COCCn1c(C)c(C)s/c1=N\C(=O)C1C(C)(C)C1(C)C 4

Name the recorded Population Hoechst High Intensity Objects (%) of the molecule listed here: Cc1nn(C)c2nc(NNC(=O)Nc3cc(Cl)nc(Cl)c3)cc(C(C)C)c12 1

Name the recorded Population Hoechst High Intensity Objects (%) of the molecule listed here: COc1cc(OC2CCN(C(C)=O)CC2)ccc1C(=O)N1CCC(N2C(=O)OCc3ccccc32)CC1 7

Name the recorded Population Hoechst High Intensity Objects (%) of the molecule listed here: COc1cc2nc(N3CCN(C(=O)c4ccco4)CC3)nc(N)c2cc1OC.Cl [PRAZOSIN HYDROCHLORIDE] 3

Name the recorded Population Hoechst High Intensity Objects (%) of the molecule listed here: COc1ccc2[nH]c(I)c(CCNC(C)=O)c2c1 [IODOMELATONIN] 3

Name the recorded Population Hoechst High Intensity Objects (%) of the molecule listed here: Cc1cc(O)c(-c2ccc([C@@H](C)CN(C)C)cc2)c2c1[nH]c(=O)c1sccc12 7

Name the recorded Population Hoechst High Intensity Objects (%) of the molecule listed here: CC(C)(C)c1ccc(CSc2cnn(C(C)(C)C)c(=O)c2Cl)cc1 [PYRIDABEN] 1

Name the recorded Population Hoechst High Intensity Objects (%) of the molecule listed here: CN(C)C(=O)Cn1cc(-c2ccc(-c3nnc4ccccn34)cc2)cn1 1

Name the recorded Population Hoechst High Intensity Objects (%) of the molecule listed here: CC(F)(F)CN1CCOc2c(nn(-c3ccccc3Cl)c2-c2ccc(Cl)cc2)C1=O 1

Name the recorded Population Hoechst High Intensity Objects (%) of the molecule listed here: Cc1cc(NC(=O)NCCN2CCC(O)(Cc3ccccc3)CC2)c2ccccc2n1 [PALOSURAN] 3

Name the recorded Population Hoechst High Intensity Objects (%) of the molecule listed here: Cn1cc(C(=O)OCC2CCN(CCNS(C)(=O)=O)CC2)c2ccccc21 5

Name the recorded Population Hoechst High Intensity Objects (%) of the molecule listed here: C[C@@H]1CC(=O)Nc2cccc(-c3ccc4c(c3)c(-c3cnn(C)c3)nn4C)c2N1 5
